- EXPERIMENT DESCRIPTION: yeast display, Sf9 membrane polyspecificity reagent, FACS + sequencing; frameworks hold sequencing errors
ATTRIBUTE MEASURED: polyreactivity (PSR sort gate)

MONOMER SEQUENCE: QVQLVESGGGLVQAGGSLRLSCAASGRIFSDYAMGWYRQAPGKERELVATITSGDSTNYADSVKGRFTISRDNAKNTVYLQMNSLKTEDTAVYYCNADRFADYDYWGQGTQVTVSS
polyreactivity (PSR sort gate): low polyreactivity

MONOMER SEQUENCE: QVQLVESGGGIVQACGSLRLSCAASGFTFYVYAMGWYRKAPGKEREFVAAISKSGGRTYYADSVMGRFTISRDNAKNTVYLQMNSLKPEDTAVYYCGRYNRYQIIYPGFDYWGQGTQVTVSS
polyreactivity (PSR sort gate): high polyreactivity

MONOMER SEQUENCE: QVQLVETGRGLVQEGGSLRLICAASGRTFYIYAMGWYRQAPGKERDLVAAISWGSGSPYYADSVKGRFTISRDNAKNTVYLQINSLKPEDTAVYYFAAEYAFPSEWTYDYWGQVTQVTVSS
polyreactivity (PSR sort gate): low polyreactivity

MONOMER SEQUENCE: QVQLVESGGGLVQAGGSLRLSCAASGFTFDNYVMGWYRQAPGKERELVAAISKSGTSTYYADSVKGRFTISRDNAKNTVYLQMNSLKPEDTAVYYCAAELPGYYYAYDYWGQGTQVTVSS
polyreactivity (PSR sort gate): high polyreactivity

Enquiry: Suppose we examine the sequence QVQLVESGGGLVQAGGSLRLSCAASGSIYDIYAMGWYGQAPGKERELVAAIRSGDRTHYADSVKGRFTISRDNAKNTVYLQMNSLKPEDTAVYYCAADRYIYLNREHDYWGQGTQVTVSS ; what polyreactivity (PSR sort gate) value has been reported?
Return: low polyreactivity

---

- EXPERIMENT DESCRIPTION: yeast display, Sf9 membrane polyspecificity reagent, FACS + sequencing; frameworks hold sequencing errors
ATTRIBUTE MEASURED: polyreactivity (PSR sort gate)

Example sequences with recorded polyreactivity (PSR sort gate):
MONOMER SEQUENCE: QVQLVESGGGLVQAGGSLRLSCAASGIIFRYYTMGWYRQAPGKERELVAAITQSSGRTYYADSVKGRFTISRDNAKNTVYLQMNCLIPEDTAVFYCNVRPLRSYRAVDYWGQGTQVTVSS
polyreactivity (PSR sort gate): high polyreactivity
//
MONOMER SEQUENCE: QVQLVESGGGLVQAGGSLRLSCAASGRTFTRNAMGWYRQAPGKERELVASITNGVSTNYADSVKGRFTISRDNAKNTVYLQMNSLKPEDTAVYYCNKGPLISYAYRYYQPYDYWGQGTQVTVSS
polyreactivity (PSR sort gate): low polyreactivity
//
MONOMER SEQUENCE: QVQLVESGGGLVQAGGSLRLSCAASGGTFYGYAMGWYRQAPGKERELVAAISYNGGNTYYADSVKGRFTISRDNAKNTVYLQMNSLKAEDTAVYYCAAGYSYRYGYWGQGTQLTVSS
polyreactivity (PSR sort gate): low polyreactivity
//
MONOMER SEQUENCE: QVQLVESGGGLVQAGGSLRLSCAASGSIFASYVMGWYRQAPGKERELVASITLSGGSTYYADSVKGRFTISRDNAKNTVYLQMNSLKPEDTAVYYCAKRGTLWLQEDYYWGQGTQVTVSS
polyreactivity (PSR sort gate): low polyreactivity

API: the following record is the query input.
Enquiry: Suppose we examine the sequence QVQLVESGGGLVQAGGSLRLSCAASGYTFAGYAMGWYRQAPGKERELVAAISRNGGTTYYADSVKGRFTISRDNAKNTVYLQMNSLKPEDTADYYCNKRGWYSVYRRDYWGQGTQVTVSS ; what polyreactivity (PSR sort gate) value has been reported?
Return: high polyreactivity
